# Assay Target: adenosine A3 receptor (Homo sapiens)
# Sequence (P0DMS8 whole entry): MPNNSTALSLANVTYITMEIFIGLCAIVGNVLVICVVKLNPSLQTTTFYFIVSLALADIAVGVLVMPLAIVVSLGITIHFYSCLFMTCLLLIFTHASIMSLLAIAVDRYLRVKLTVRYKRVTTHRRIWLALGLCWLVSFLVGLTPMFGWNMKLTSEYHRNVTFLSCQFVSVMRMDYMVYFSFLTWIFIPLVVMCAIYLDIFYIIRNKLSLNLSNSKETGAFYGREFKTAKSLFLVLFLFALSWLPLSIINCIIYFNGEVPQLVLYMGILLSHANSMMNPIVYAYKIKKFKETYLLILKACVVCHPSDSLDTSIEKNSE
# Experimental Context: read-out: KI value in adenosine A3 receptor assay; assay as described in WO 99/64418
pKi: −log10 of the molar value.

| Compound | pKi |
| --- | --- |
| N#Cc1cccc(-c2nc(Nc3cnccn3)sc2-n2cncn2)c1 [Example 27] | 7.80 |
